Target: T1, ARHGAP21, Q5T5U3
T1 sequence (Q5T5U3 45-169, limits assumed, looked up): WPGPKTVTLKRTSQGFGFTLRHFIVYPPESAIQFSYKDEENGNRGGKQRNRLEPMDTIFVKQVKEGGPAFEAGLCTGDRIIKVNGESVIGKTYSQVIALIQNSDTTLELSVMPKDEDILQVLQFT
Experiment: holdup assay
Set-up: key: below the threshold = too weak to quantify, mostly under pKd 3.1 to 4
Conditions: plain residues with an end cap or a label only (N-terminal biotin on a linker: ado-ado)
ASSAY_METRIC: pKd
// no unit string in output, number only

pKd for KIEDVEITLV [FCHSD2, O94868] is 4.01

NKSEPFLTWL [WWTR1, Q9GZV5] yielded pKd of 4.88

Reported pKd ( ATKDKKITTV [EXOC4, Q96A65] ) = 4.09

Entry KSRPENGTVC [TMEM178B, H3BS89] ; pKd = 4.14

So for IKLETKKTKL [SLC15A2, Q16348] , the logged pKd turned out to be 3.98
